measured-on: AGO2 A367P (Homo sapiens, UniProt Q9UKV8 1-859, A367P;S387D;S824A;S828D;S831D;S834A)
Sequence (Q9UKV8 whole entry A367P/S387D/S824A/S828D/S831D/S834A): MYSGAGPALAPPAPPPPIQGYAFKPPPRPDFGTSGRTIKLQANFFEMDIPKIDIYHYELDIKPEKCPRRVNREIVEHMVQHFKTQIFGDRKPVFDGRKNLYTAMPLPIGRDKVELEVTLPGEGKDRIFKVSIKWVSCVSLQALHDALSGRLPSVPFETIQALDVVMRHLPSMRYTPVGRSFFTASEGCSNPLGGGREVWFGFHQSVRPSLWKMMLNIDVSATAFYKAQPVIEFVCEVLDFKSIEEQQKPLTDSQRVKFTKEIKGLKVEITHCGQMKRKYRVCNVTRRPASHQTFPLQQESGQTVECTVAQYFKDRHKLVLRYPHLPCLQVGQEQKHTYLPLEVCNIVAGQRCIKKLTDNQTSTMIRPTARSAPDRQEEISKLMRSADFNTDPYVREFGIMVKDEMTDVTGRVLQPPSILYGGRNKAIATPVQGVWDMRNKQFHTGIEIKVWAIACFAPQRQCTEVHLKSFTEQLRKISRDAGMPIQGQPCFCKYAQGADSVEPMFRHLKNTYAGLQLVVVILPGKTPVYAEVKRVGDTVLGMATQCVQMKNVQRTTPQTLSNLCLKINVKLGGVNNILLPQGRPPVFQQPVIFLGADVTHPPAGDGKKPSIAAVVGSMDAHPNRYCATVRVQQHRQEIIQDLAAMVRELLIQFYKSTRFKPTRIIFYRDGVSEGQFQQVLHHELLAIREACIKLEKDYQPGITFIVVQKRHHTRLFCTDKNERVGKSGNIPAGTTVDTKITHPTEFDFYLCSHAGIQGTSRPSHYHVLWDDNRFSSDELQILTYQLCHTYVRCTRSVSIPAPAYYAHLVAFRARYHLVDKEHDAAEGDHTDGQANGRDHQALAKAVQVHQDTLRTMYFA
assay-text: RNA Bind-n-Seq (nitrocellulose filter binding and sequencing); miR-122 guide loaded in AGO2; 60 min incubation; 30 mM Tris pH 8.0, 100 mM potassium acetate, 2 mM magnesium acetate, 0.5 mM TCEP, 0.005% NP-40, 0.01 mg/ml yeast tRNA; 3 nM AGO2-miR-122, 100 nM RNA library; 60; high values mean tight binding
measurement-setup: protein: recombinant; tags: His6 (N-terminal, pFastBac HTA)
Attribute: binding signal

ATACCTTG (ssRNA, constant regions annealed to DNA blockers; guide miR-122 5' phosphate) RNA 1: GAGUUCUACAGUCCGACGAUCCCAACAUACCUUGCACCUGGAAUUCUCGGGUGCCAA RNA 2: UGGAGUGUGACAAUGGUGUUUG DNA 1: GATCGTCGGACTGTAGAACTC DNA 2: TTGGCACCCGAGAATTCCA; 0.125 fold enrichment over input

// query Form field: reported binding signal of ACATTTTG (ssRNA, constant regions annealed to DNA blockers; guide miR-122 5' phosphate) RNA 1: GAGUUCUACAGUCCGACGAUCCCAACACAUUUUGCACCUGGAAUUCUCGGGUGCCAA RNA 2: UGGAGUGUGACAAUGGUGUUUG DNA 1: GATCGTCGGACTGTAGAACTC DNA 2: TTGGCACCCGAGAATTCCA
// result 0.143 fold enrichment over input

// query # repeat for ACACTCCA (ssRNA, constant regions annealed to DNA blockers; guide miR-122 5' phosphate) RNA 1: GAGUUCUACAGUCCGACGAUCCCAACACACUCCACACCUGGAAUUCUCGGGUGCCAA RNA 2: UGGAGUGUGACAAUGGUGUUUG DNA 1: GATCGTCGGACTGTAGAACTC DNA 2: TTGGCACCCGAGAATTCCA
// result 155 fold enrichment over input

// query # repeat for ACGTTTCA (ssRNA, constant regions annealed to DNA blockers; guide miR-122 5' phosphate) RNA 1: GAGUUCUACAGUCCGACGAUCCCAACACGUUUCACACCUGGAAUUCUCGGGUGCCAA RNA 2: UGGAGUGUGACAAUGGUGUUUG DNA 1: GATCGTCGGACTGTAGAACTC DNA 2: TTGGCACCCGAGAATTCCA
// result 0.363 fold enrichment over input
